Measured Population Hoechst High Intensity Objects (%) accompanies every entry in the list below.
- System: U2OS
- Protocol notes: Multiplex assay against U2OS
- Assay type: toxicity, cell-based
- Experimental parameters: human, 24 h, 1 µM, compound concentration 1 uM, replicate 2
Property: Population Hoechst High Intensity Objects (%)

Molecule	Result
CCCn1c(=O)c2[nH]c(C3CCCC3)nc2n(CCC)c1=O	2%
CC(C)(C)c1ccc(S(=O)(=O)Nc2ccc(Cl)cc2C(=O)c2cc[n+]([O-])cc2)cc1	0%
O=S(=O)(c1ccccc1)c1cnc2c(N3CCNCC3)cccc2c1 [INTEPIRDINE]	0%
CCOc1c2c(c(OCC)c3ncccc13)CN(c1ccc(CS(=O)(=O)NC(=O)Cc3ccccc3OC)cc1C)C2=O	1%
C[C@H]1[C@H]2CC[C@H]3[C@@H]4CC=C5C[C@@H](N(C)C)CC[C@]5(C)[C@H]4CC[C@]23CN1C	1%
N[C@@]1(C(=O)O)CO[C@H]2[C@H](C(=O)O)[C@H]21	0%
O=C(NCC(=O)N1CC[C@H](N[C@H]2CC[C@@](O)(c3ccc(-c4ncccn4)cn3)CC2)C1)c1cccc(C(F)(F)F)c1	3%

###

- System: Fibroblast
- Protocol notes: Multiplex assay against human fibroblast
- Format: toxicity, cell-based
- Experimental parameters: 48 h, 1 µM, compound concentration 1 uM, replicate 1
Property: Total Cell Count

Molecule	Property	Quantitative result
CCNC1(C(N)=O)CCN(c2ncnc3c2nc(-c2ccccc2Cl)n3-c2ccc(Cl)cc2)CC1	Total Cell Count	167
CCCN1CCC[C@@H]2Cc3n[nH]cc3C[C@H]21.Cl [QUINPIROLE HYDROCHLORIDE]	Total Cell Count	175
CSCC[C@H](NC=O)C(=O)N[C@@H](CC(C)C)C(=O)N[C@@H](Cc1ccccc1)C(=O)O	Total Cell Count	184
Oc1c(CN2CCN(c3ccccn3)CC2)cc(Cl)c2cccnc12	Total Cell Count	158

###

Measured Population Healthy Nuclei (%) accompanies every entry in the list below.
- Tested on: U2OS
- Protocol notes: Multiplex assay against U2OS
- Type: toxicity, cell-based
- Experimental parameters: human, 48 h, 1 µM, compound concentration 1 uM, replicate 1

Molecule	Population Healthy Nuclei (%)
Cc1ccc(F)cc1C(=O)Nc1ccc(C(=O)N2Cc3cccn3Cc3ccccc32)c(Cl)c1 [LIXIVAPTAN]	64
C[C@H]1[C@H]2CC[C@H]3[C@@H]4CC=C5C[C@@H](N(C)C)CC[C@]5(C)[C@H]4CC[C@]23CN1C [CONESSINE]	79
COc1cc(C(=O)N(CCCc2ccccc2)Cc2ccc(CC(=O)O)cc2)cc(OC)c1C	69
Cc1ccccc1C(=O)Nc1ccc(C(=O)N2CCCC(N(C)C)c3ccccc32)cc1.Cl (centres undefined)	71

###

- System: U2OS
- Protocol notes: Multiplex assay against U2OS
- Assay type: toxicity, cell-based
- Experimental parameters: human, 24 h, 1 µM, compound concentration 1 uM, replicate 2
Measured Population Hoechst High Intensity Objects (%) accompanies every entry in the list below.
Property: Population Hoechst High Intensity Objects (%)

Compound	System	Result
CN1CCN(c2nc3cc(C(F)(F)F)ccc3n3cccc23)CC1.O=C(O)/C=C\C(=O)O.O=C(O)/C=C\C(=O)O	U2OS	0%
Cc1ccc(F)cc1C(=O)Nc1ccc(C(=O)N2Cc3cccn3Cc3ccccc32)c(Cl)c1	U2OS	4%
Cc1ccc(/C(=C\CN2CCCC2)c2ccccn2)cc1	U2OS	4%
CCCC(CCC)C(=O)O	U2OS	3%
O=C(O)Cc1ccccc1Nc1c(Cl)cccc1Cl	U2OS	3%
CCCN1CCC[C@@H]2Cc3n[nH]cc3C[C@H]21.Cl [QUINPIROLE HYDROCHLORIDE]	U2OS	0%
COc1cc(NC(=O)CCN2CCC(OC(=O)Nc3ccccc3-c3ccccc3)CC2)c(Cl)cc1CNC[C@H](O)c1ccc(O)c2[nH]c(=O)ccc12	U2OS	1%
Cc1ccc(C(C)(O)c2nc3ccccc3s2)c(C)c1 (stereo not given)	U2OS	0%
c1cc(OCCCN2CCCCC2)ccc1CN1CCCCC1	U2OS	0%
CN(C)CCCc1cc(C(=O)Nc2ccc(-c3ccncc3)cc2)ccc1O.Cl.Cl	U2OS	4%
